tested on: SW-620; test: NCI tumour cell line growth inhibition, 48 h
The source made the active and inactive calls. Cut-off read from the data, not from the text of the source: active = GI50 up to about 1.1 µM and inactive = higher.
Would you mind telling me the reported GI50 of each entry?

Prompt: Look up GI50 of `CC1=NN(c2cccc(Cl)c2)C(=N/c2nc3ccccc3s2)/C1=C\C=C\c1ccccc1` and report it.
Completion: > 100 µM (inactive)

Prompt: Look up GI50 of `O=C(O)CN1C=C(C(=O)c2cc3ccccc3n2S(=O)(=O)c2ccccc2)CCC1` and report it.
Completion: 69.2 µM (inactive)

Prompt: Look up GI50 of CC(=O)OC1CC2OC(Cc3ccccc32)O1 (stereo unspecified) and report it.
Completion: > 100 µM (inactive)

Prompt: Look up GI50 of `Cc1cc(C)c(S(=O)(=O)N(CCCCCCN)OCCCON(CCCCCCN)S(=O)(=O)c2c(C)cc(C)cc2C)c(C)c1` and report it.
Completion: 2.15 µM (inactive)

Prompt: Look up GI50 of `COc1ccc2[nH]c3c4c(c5cc(C(C)(C)C)ccc5c3c2c1)C(=O)N(c1ccccc1)C4=O` and report it.
Completion: > 100 µM (inactive)

Prompt: Look up GI50 of `Cc1ccc(-c2cc(O)c3cc4c(cc3n2)OCO4)cc1` and report it.
Completion: 0.482 µM (active)

Prompt: Look up GI50 of `COc1cc(/C=C2\C[C@H]3[C@@H]4CCc5cc(OCCN6CCCC6)ccc5[C@H]4CC[C@]3(C)C2=O)cc(OC)c1OC` and report it.
Completion: 1.91 µM (inactive)

Prompt: Look up GI50 of `C/C(=C\CNc1ncnc2c1ncn2CCC#N)CO` and report it.
Completion: > 100 µM (inactive)

Prompt: Look up GI50 of COC1CCC(OS(C)(=O)=O)C(CO)O1 (stereo unspecified) and report it.
Completion: > 100 µM (inactive)

Prompt: Look up GI50 of N#CC(c1ccccc1)N(CCOCCOCCN(C(=O)c1ccccc1)C(C#N)c1ccccc1)C(=O)c1ccccc1 (stereo unspecified) and report it.
Completion: > 100 µM (inactive)

Prompt: Look up GI50 of `Cc1c(Cl)ccc2[s+]snc12` and report it.
Completion: 27.7 µM (inactive)

Prompt: Look up GI50 of `O=c1cc(-c2ccccc2)nc(/C=C(\O)c2ccncc2)n1-c1ccccc1` and report it.
Completion: > 100 µM (inactive)

Prompt: Look up GI50 of `COc1ccc(/C(Cl)=C(\C=O)c2ccc(OC)c(OC)c2)cc1OC` and report it.
Completion: > 100 µM (inactive)

Prompt: Look up GI50 of COC(=O)C1=C(C(=O)OC)C2C(C)=CC(C)=CN2C(C#N)=C(SC)S1 (stereo unspecified) and report it.
Completion: 19.9 µM (inactive)

Prompt: Look up GI50 of `Cc1nc2ccc(NCCN(C)C)c3c(=O)c4cc(O)ccc4n1c23` and report it.
Completion: 0.122 µM (active)

Prompt: Look up GI50 of O=CC1OC(=O)c2cc(O)c(O)c(O)c2-c2c(cc(O)c(O)c2O)C(=O)OC1C(O)C(O)CO (stereo unspecified) and report it.
Completion: 17.1 µM (inactive)

Prompt: Look up GI50 of `Cc1ccc(CNNC(=O)c2cc[n+]([BH2-]C#N)cc2)cc1` and report it.
Completion: > 100 µM (inactive)

Prompt: Look up GI50 of `Cc1cc(=O)n(-c2ccccc2)c(=O)o1` and report it.
Completion: > 100 µM (inactive)

Prompt: Look up GI50 of `CCN(CC)CSc1nc2ccccc2s1` and report it.
Completion: > 100 µM (inactive)

Prompt: Look up GI50 of `O=c1c2c3c(sc2nc2n1NC=NN2)CCCC3` and report it.
Completion: 17.6 µM (inactive)

Prompt: Look up GI50 of `O=c1c(C(c2cccc(C(c3c(O)oc4ccccc4c3=O)c3c(O)oc4ccccc4c3=O)c2)c2c(O)oc3ccccc3c2=O)c(O)oc2ccccc12` and report it.
Completion: > 100 µM (inactive)

Prompt: Look up GI50 of `CCN(CC)c1ccc2cc(-c3nnc(-c4ccccc4)[nH]3)c(=O)oc2c1` and report it.
Completion: 33.7 µM (inactive)

Prompt: Look up GI50 of `CCC1(CC)C(=O)NC(=S)N=C1N` and report it.
Completion: > 100 µM (inactive)

Prompt: Look up GI50 of `O=C(/N=C(\Nc1ccccc1)SCCS/C(=N/C(=O)c1cccs1)Nc1ccccc1)c1cccs1` and report it.
Completion: 95.7 µM (inactive)

Prompt: Look up GI50 of `Cc1cc(C)c2c(n1)S(=O)(=O)N(CCCN1CCN(c3cccc(Cl)c3)CC1)C(C(=O)c1ccccc1)=C2O` and report it.
Completion: 31.8 µM (inactive)

Prompt: Look up GI50 of `Cc1cccc(C)c1NC(=O)CCC(=O)CC(=O)C(C)C` and report it.
Completion: > 100 µM (inactive)

Prompt: Look up GI50 of CC(C)OC(=O)C1Cc2c([nH]c3ccccc23)C(c2ccccc2)N1 (stereo unspecified) and report it.
Completion: > 100 µM (inactive)

Prompt: Look up GI50 of C=C(C)C1CC=C(C(=O)O)CC1 (stereo unspecified) and report it.
Completion: 1740 µM (inactive)

Prompt: Look up GI50 of `O=C(COc1ccc(Cl)cc1)N1CCN(C(=O)COc2ccc(Cl)cc2)c2ccccc21` and report it.
Completion: > 100 µM (inactive)

Prompt: Look up GI50 of `CCOC(=O)[C-]([N+]#N)[Si](C)(C)C` and report it.
Completion: > 100 µM (inactive)

Prompt: Look up GI50 of `O=[N+]([O-])C(=C(Sc1ccccc1)Sc1ccccc1)C(Cl)=C(Cl)Cl` and report it.
Completion: < 0.0391 µM (active)

The origin of these recorded values is ChEMBL document CHEMBL1201862.
